Target: T1, 006 PSMA Fab
T1 construct: also called Anti-PSMA Fab
Assay: clonal phage ELISA; biotinylated PSMA Fab on neutravidin plate, PSMA antigen as competitor, anti-M13-HRP
measured-metric: phage binding ELISA signal (Anti-PSMA Fab, wells pre-incubated with PSMA antigen)
The response must contain the number and no unit.

// worked examples, phage binding ELISA signal (Anti-PSMA Fab, wells pre-incubated with PSMA antigen) included
binder	recorded-result
MDVWCVPTWMCQHL [Phage-3995]	0.119
DIEVCRPHWMCEGF [Phage-4003]	0.0801
QEMTCVPRWMCSGF [Phage-4000]	0.0832
VQPWCVPAWMCDGL [Phage-3997]	0.0983

Would you mind telling me what phage binding ELISA signal (Anti-PSMA Fab, wells pre-incubated with PSMA antigen) value was observed for IMQRCEPLWMCSGL [Phage-4008] ? 0.0777

Would you mind telling me what phage binding ELISA signal (Anti-PSMA Fab, wells pre-incubated with PSMA antigen) value was observed for QMITCQPKWMCEGF [Phage-3998] ? 0.0852

Would you mind telling me what phage binding ELISA signal (Anti-PSMA Fab, wells pre-incubated with PSMA antigen) value was observed for LTSWCVPQWMCDGL [Phage-4005] ? 0.0623
